Here the recorded ε is given for each entry.
assay: Photophysical characterization; assay type: physicochemical; details: Table 1b; 3:7 v/v MeCN:PBS (pH=7.4)
The figure you give is taken to be in M/cm; do not add the unit.

COc1ccc(C2=[N+]3C(=Nc4c(-c5ccc(OCc6cn(C(COC7OC(CO)C(O)C(O)C7O)COC7OC(CO)C(O)C(O)C7O)nn6)cc5)cc(-c5ccc(OC)cc5)n4[B-]3(OC)OC)C(c3ccc(OCc4cn(C(COC5OC(CO)C(O)C(O)C5O)COC5OC(CO)C(O)C(O)C5O)nn4)cc3)=C2)cc1 (stereo not shown) :: 24000
COc1ccc(-c2cc(-c3ccccc3)c3n2[B-](OC)(OC)[N+]2=C(c4ccc(OCc5cn(C(COC6OC(CO)C(O)C(O)C6O)COC6OC(CO)C(O)C(O)C6O)nn5)cc4)C=C(c4ccccc4)C2=N3)cc1 (stereo not shown) :: 18000
COc1ccc(C2=[N+]3C(=Nc4c(-c5ccccc5)cc(-c5ccc(OC)cc5)n4[B-]3(F)F)C(c3ccccc3)=C2)cc1 [AB-OMe2, reference compound] :: 3400

Then there is this compound:
Q: Could you share which ε value was measured for CO[B-]1(OC)n2c(-c3ccc(OCc4cn(C(COC5OC(CO)C(O)C(O)C5O)COC5OC(CO)C(O)C(O)C5O)nn4)cc3)cc(-c3ccccc3)c2N=C2C(c3ccccc3)=CC(c3ccc(OCc4cn(C(COC5OC(CO)C(O)C(O)C5O)COC5OC(CO)C(O)C(O)C5O)nn4)cc3)=[N+]21 (stereo not shown) ?
Result: 26000

---

Let's look at some molecules and their measured ε.
assay: Photophysical characterization; assay type: physicochemical; conditions: Table 2; 3:7 v/v MeCN:PBS (pH=7.4)
Give the quantity in M/cm, number only.

These recorded examples may help you get a feel for the data.
COc1ccc(C2=[N+]3C(=Nc4c(-c5ccc(OCc6cn(C(COC7OC(CO)C(O)C(O)C7O)COC7OC(CO)C(O)C(O)C7O)nn6)cc5)cc(-c5ccc(OC)cc5)n4[B-]3(OC)OC)C(c3ccc(OCc4cn(C(COC5OC(CO)C(O)C(O)C5O)COC5OC(CO)C(O)C(O)C5O)nn4)cc3)=C2)cc1 (stereo not shown) :: 24000
CO[B-]1(OC)n2c(-c3ccc(OCc4cn(C(COC5OC(CO)C(O)C(O)C5O)COC5OC(CO)C(O)C(O)C5O)nn4)cc3)cc(-c3ccccc3)c2N=C2C(c3ccccc3)=CC(c3ccc(OCc4cn(C(COC5OC(CO)C(O)C(O)C5O)COC5OC(CO)C(O)C(O)C5O)nn4)cc3)=[N+]21 (stereo not shown) :: 26000

Q: Which ε is listed for COc1ccc(C2=[N+]3C(=Nc4c(-c5ccccc5)cc(-c5ccc(OC)cc5)n4[B-]3(F)F)C(c3ccccc3)=C2)cc1 [AB-OMe2, reference compound] ?
Result: 3400

Q: Give the measured ε of COc1ccc(-c2cc(-c3ccccc3)c3n2[B-](OC)(OC)[N+]2=C(c4ccc(OCc5cn(C(COC6OC(CO)C(O)C(O)C6O)COC6OC(CO)C(O)C(O)C6O)nn5)cc4)C=C(c4ccccc4)C2=N3)cc1 (stereo not shown) .
Result: 18000

---

assay: Photophysical characterization; type: physicochemical; conditions: Table 2; relative to dimethoxy aza-BODIPY
quantity kind: Φ

Illustrative cases are given below, each with its answer.
COc1ccc(C2=[N+]3C(=Nc4c(-c5ccc(OCc6cn(C(COC7OC(CO)C(O)C(O)C7O)COC7OC(CO)C(O)C(O)C7O)nn6)cc5)cc(-c5ccc(OC)cc5)n4[B-]3(OC)OC)C(c3ccc(OCc4cn(C(COC5OC(CO)C(O)C(O)C5O)COC5OC(CO)C(O)C(O)C5O)nn4)cc3)=C2)cc1 (stereo not shown) :: 0.31
COc1ccc(C2=[N+]3C(=Nc4c(-c5ccccc5)cc(-c5ccc(OC)cc5)n4[B-]3(F)F)C(c3ccccc3)=C2)cc1 [AB-OMe2, reference compound] :: 0.014
CO[B-]1(OC)n2c(-c3ccc(OCc4cn(C(COC5OC(CO)C(O)C(O)C5O)COC5OC(CO)C(O)C(O)C5O)nn4)cc3)cc(-c3ccccc3)c2N=C2C(c3ccccc3)=CC(c3ccc(OCc4cn(C(COC5OC(CO)C(O)C(O)C5O)COC5OC(CO)C(O)C(O)C5O)nn4)cc3)=[N+]21 (stereo not shown) :: 0.19

Kindly consider the entry below.
Q: I have this compound here, COc1ccc(-c2cc(-c3ccccc3)c3n2[B-](OC)(OC)[N+]2=C(c4ccc(OCc5cn(C(COC6OC(CO)C(O)C(O)C6O)COC6OC(CO)C(O)C(O)C6O)nn5)cc4)C=C(c4ccccc4)C2=N3)cc1 (stereo not shown) , and I need its recorded Φ.
Result: 0.10
